target: human OT7T175 (metastin receptor) (human, UniProt Q969F8 1-398); test: cell-based or functional assay
Sequence (Q969F8 whole entry L364H): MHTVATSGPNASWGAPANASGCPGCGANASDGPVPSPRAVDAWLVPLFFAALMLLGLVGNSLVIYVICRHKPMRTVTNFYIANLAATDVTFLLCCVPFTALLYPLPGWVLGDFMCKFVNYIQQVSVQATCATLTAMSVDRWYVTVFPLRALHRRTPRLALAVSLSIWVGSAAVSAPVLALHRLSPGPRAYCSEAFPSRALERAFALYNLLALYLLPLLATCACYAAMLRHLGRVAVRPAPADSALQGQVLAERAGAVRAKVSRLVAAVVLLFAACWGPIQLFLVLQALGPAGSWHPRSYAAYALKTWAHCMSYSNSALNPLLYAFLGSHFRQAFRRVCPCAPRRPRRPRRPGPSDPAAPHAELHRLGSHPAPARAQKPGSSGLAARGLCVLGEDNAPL
Non-standard residues stand in square brackets, D forms with d. No end group written: not given here. *: point of attachment. GuAmb = 4-guanidinomethylbenzoyl, N=C(N)NCc1ccc(C(=O)*)cc1; indole‑3‑acetyl = O=C(Cc1c[nH]c2ccccc12)*; Arg(Me) = CNC(=N)NCCC[C@H](N)C(=O)O; amidino = N=C(N)*; azaGly = NNC(=O)O
Measured Ca ion level-increasing activity (FLIPR) values are reported for all entries that follow.

Query block: Request the reported Ca ion level-increasing activity (FLIPR) associated with YNWNSXGLRF (D-Tyr1; Pya(2)6; Arg(Me)9; C-terminal amide, also called Compound No. 281) [[D-Tyr1,Pya(2)6,Arg(Me)9]MS10]
Result block: 0.5 x Metastin (1-54)

Query block: What value of Ca ion level-increasing activity (FLIPR) has been recorded for this entry: GuAmb-FGL[Arg(Me)]F-NH2 (SMILES CNC(=N)NCCC[C@H](NC(=O)[C@H](CC(C)C)NC(=O)CNC(=O)[C@H](Cc1ccccc1)NC(=O)c1ccc(CNC(=N)N)cc1)C(=O)N[C@@H](Cc1ccccc1)C(N)=O) [des(1-5)-GuAmb-[Arg(Me)9]MS10]
Result block: 1 x Metastin (1-54)

Query block: Give the measured Ca ion level-increasing activity (FLIPR) of [dY]NFNSFF[azaGly]L[Arg(Me)]F-NH2 (N-terminus assumed; SMILES CNC(=N)NCCC[C@H](NC(=O)[C@H](CC(C)C)NC(=O)NNC(=O)[C@H](Cc1ccccc1)NC(=O)[C@H](Cc1ccccc1)NC(=O)[C@H](CO)NC(=O)[C@H](CC(N)=O)NC(=O)[C@H](Cc1ccccc1)NC(=O)[C@H](CC(N)=O)NC(=O)[C@H](N)Cc1ccc(O)cc1)C(=O)N[C@@H](Cc1ccccc1)C(N)=O, printed in three-letter code: D-Tyr-Asn-Phe-Asn-Ser-Phe-Phe-AzaGly-Leu-Arg(Me)-Phe-NH2; also called Compound No. 270) [Endo-Phe5a-[D-Tyr1,Phe3,AzaGly7,Arg(Me)9]MS10] .
Result block: 1 x Metastin (1-54)

Further cases:
Query block: Look up Ca ion level-increasing activity (FLIPR): {indole‑3‑acetyl}-NSF[azaGly]L[Arg(Me)]F-NH2 (SMILES CNC(=N)NCCC[C@H](NC(=O)[C@H](CC(C)C)NC(=O)NNC(=O)[C@H](Cc1ccccc1)NC(=O)[C@H](CO)NC(=O)[C@H](CC(N)=O)NC(=O)Cc1c[nH]c2ccccc12)C(=O)N[C@@H](Cc1ccccc1)C(N)=O, also called Compound No. 266) [des(1-3)-Indole-3-acetyl-[AzaGly7,Arg(Me)9]MS10]
Result block: 2 x Metastin (1-54)

Query block: Look up Ca ion level-increasing activity (FLIPR): amidino-WNSF[azaGly]L[Arg(Me)]F-NH2 (SMILES CNC(=N)NCCC[C@H](NC(=O)[C@H](CC(C)C)NC(=O)NNC(=O)[C@H](Cc1ccccc1)NC(=O)[C@H](CO)NC(=O)[C@H](CC(N)=O)NC(=O)[C@H](Cc1c[nH]c2ccccc12)NC(=N)N)C(=O)N[C@@H](Cc1ccccc1)C(N)=O, also called Compound No. 273) [des(1-2)-Amidino-[AzaGly7,Arg(Me)9]MS10]
Result block: 5 x Metastin (1-54)

Attribution: patent US20090298765A1
